molecular target: CDK6/Cyclin D1 (Homo sapiens (Human), UniProt Q00534); assay: biochemical
Sequence (Q00534 whole entry): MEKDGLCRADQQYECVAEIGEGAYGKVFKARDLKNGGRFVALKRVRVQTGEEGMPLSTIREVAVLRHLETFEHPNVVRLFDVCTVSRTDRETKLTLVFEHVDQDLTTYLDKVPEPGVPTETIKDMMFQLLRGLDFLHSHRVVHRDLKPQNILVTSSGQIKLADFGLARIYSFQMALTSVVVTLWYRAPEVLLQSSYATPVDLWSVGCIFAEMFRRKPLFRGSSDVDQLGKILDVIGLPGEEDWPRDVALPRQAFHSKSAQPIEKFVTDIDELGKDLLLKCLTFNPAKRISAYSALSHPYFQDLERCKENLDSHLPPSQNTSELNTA
Sequence (P24385 whole entry partner): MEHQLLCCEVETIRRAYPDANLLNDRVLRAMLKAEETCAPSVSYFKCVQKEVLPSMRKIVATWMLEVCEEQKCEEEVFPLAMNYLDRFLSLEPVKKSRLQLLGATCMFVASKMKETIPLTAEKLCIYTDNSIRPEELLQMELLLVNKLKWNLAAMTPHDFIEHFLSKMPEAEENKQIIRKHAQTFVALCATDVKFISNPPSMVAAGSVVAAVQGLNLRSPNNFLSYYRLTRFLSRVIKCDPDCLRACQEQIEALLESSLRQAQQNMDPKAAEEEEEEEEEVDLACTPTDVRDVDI
readoutName: Ki (nM)
Give a bare numeral; the unit nM is implied.

[ask] Look up Ki: C[C@]1(O)CCCC1n1c(=O)ccc2cnc(NC3CCN(S(=O)(=O)C(F)(F)F)CC3)nc21 (single isomer, unassigned)
[reply] 11.3
